Provenance of the data: ChEMBL document CHEMBL4840351

tested on: Raji; experiment: Antiproliferative activity against human Raji cells assessed as reduction in cell viability incubated for 72 hrs by celltiter-glo assay
A collection of compounds and their measured IC50

smiles.data	qualifier.symbol	IC50 / µM
CC#CC(=O)N1CCC[C@H]1c1nc(-c2ccc(C(=O)Nc3ccccn3)cc2)c2c(N)nccn12	>	10
C=CC(=O)N1CCCC[C@H]1c1nc(-c2ccc(C(=O)Nc3cc(C(F)(F)F)ccn3)cc2)c(C(N)=O)n1N	=	4.3

###

target: Tyrosine-protein kinase Blk (Homo sapiens, UniProt P51451)
Sequence (P51451 whole entry): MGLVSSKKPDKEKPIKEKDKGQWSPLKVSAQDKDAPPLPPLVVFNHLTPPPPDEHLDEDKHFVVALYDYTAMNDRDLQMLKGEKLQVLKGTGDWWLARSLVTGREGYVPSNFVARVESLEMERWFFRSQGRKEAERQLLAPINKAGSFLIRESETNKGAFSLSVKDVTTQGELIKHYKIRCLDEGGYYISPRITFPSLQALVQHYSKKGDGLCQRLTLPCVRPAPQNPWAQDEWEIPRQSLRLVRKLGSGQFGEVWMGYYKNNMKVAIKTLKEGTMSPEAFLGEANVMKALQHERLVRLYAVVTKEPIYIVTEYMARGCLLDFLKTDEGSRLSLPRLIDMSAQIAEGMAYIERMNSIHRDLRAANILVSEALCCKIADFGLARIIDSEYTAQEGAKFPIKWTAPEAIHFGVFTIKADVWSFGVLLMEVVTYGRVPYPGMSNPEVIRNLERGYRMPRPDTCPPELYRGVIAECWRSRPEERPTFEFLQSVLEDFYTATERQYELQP
assay.readout: IC50 (nM)

smiles.data	assay.result
C=CC(=O)N1CCCC[C@H]1c1nc(-c2ccc(C(=O)Nc3cc(C(F)(F)F)ccn3)cc2)c(C(N)=O)n1N	170

###

target: Cytochrome P450 2D6 (Homo sapiens)
Sequence (P10635 whole entry): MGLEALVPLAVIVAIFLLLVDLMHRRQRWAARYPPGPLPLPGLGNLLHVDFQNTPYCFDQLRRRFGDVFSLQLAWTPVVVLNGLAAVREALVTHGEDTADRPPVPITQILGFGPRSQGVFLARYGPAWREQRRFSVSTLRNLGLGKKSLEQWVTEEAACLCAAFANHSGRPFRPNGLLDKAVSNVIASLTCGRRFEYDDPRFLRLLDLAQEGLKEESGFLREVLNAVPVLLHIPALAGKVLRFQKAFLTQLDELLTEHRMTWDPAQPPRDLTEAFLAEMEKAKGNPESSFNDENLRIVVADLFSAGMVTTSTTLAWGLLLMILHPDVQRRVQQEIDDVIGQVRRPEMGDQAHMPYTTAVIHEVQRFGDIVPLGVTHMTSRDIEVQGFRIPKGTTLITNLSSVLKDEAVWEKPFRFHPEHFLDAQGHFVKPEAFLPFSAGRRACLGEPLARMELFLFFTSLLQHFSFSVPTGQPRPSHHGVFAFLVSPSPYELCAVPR
assay.readout: IC50

smiles.data	assay.readout	assay.result
C=CC(=O)N1CCCC[C@H]1c1nc(-c2ccc(C(=O)Nc3cc(C(F)(F)F)ccn3)cc2)c(C(N)=O)n1N	IC50	> 10 µM

###

test system: Pfeiffer; experiment: Antiproliferative activity against human Pfeiffer cells assessed as reduction in cell viability incubated for 72 hrs by celltiter-glo assay
A collection of compounds and their measured IC50

smiles.data	qualifier.symbol	IC50 / nM
CC#CC(=O)N1CCC[C@H]1c1nc(-c2ccc(C(=O)Nc3ccccn3)cc2)c2c(N)nccn12	>	10000
C=CC(=O)N1CCCC[C@H]1c1nc(-c2ccc(C(=O)Nc3cc(C(F)(F)F)ccn3)cc2)c(C(N)=O)n1N	=	2500

###

system: Ramos; experiment: Antiproliferative activity against human Ramos cells assessed as reduction in cell viability incubated for 72 hrs by celltiter-glo assay
pIC50: −log10 of the molar value.
assay.readout: pIC50

molecule	assay.readout	assay.result
C=CC(=O)N1CCCC[C@H]1c1nc(-c2ccc(C(=O)Nc3cc(C(F)(F)F)ccn3)cc2)c(C(N)=O)n1N	pIC50	5.60
CC#CC(=O)N1CCCC[C@H]1c1nc(-c2ccc(C(=O)Nc3cc(C(F)(F)F)ccn3)cc2)c(C(N)=O)n1N	pIC50	6.11
CC#CC(=O)N1CCC[C@H]1c1nc(-c2ccc(C(=O)Nc3ccccn3)cc2)c2c(N)nccn12 [ACALABRUTINIB]	pIC50	4.50

###

molecular target: UniProt:P08684; assay: Inhibition of CYP3A4T in human liver microsomes using midazolam as substrate incubated for 10 mins in presence of NADPH by LC-MS/MS analysis; format: ADME
Sequence (P08684 whole entry): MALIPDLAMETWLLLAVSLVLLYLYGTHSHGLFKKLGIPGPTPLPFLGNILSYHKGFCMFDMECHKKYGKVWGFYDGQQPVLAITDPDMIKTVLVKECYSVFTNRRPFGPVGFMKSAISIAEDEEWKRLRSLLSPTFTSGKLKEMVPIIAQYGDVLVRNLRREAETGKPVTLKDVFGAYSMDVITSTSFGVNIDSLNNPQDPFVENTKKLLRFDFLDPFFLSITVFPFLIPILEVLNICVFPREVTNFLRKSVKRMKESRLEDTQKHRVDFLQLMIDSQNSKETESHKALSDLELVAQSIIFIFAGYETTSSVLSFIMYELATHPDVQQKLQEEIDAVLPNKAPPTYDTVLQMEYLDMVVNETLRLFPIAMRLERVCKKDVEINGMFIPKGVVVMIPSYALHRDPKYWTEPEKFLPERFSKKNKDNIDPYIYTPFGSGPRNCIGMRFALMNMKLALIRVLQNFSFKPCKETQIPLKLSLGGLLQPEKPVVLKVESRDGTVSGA

smiles.data	measurement.target	IC50
C=CC(=O)N1CCCC[C@H]1c1nc(-c2ccc(C(=O)Nc3cc(C(F)(F)F)ccn3)cc2)c(C(N)=O)n1N	UniProt:P08684	> 10 µM

###

assay: AUC in Sprague-Dawley rat at 5 mg/kg, iv measured upto 24 hrs by LC/MS/MS analysis; format: ADME, organism-based; design: route intravenous, dose 5 mg/kg, time <=24; conditions: in vivo
assay.readout: AUC at 24 h

smiles.data	assay.result
C=CC(=O)N1CCCC[C@H]1c1nc(-c2ccc(C(=O)Nc3cc(C(F)(F)F)ccn3)cc2)c(C(N)=O)n1N	6360 ng·h/mL

###

biological target: Tyrosine-protein kinase BTK (Homo sapiens, UniProt Q06187); assay: Inhibition of BTK in human TMD8 cells assessed as reduction in BTK autophosphorylation at Tyr 223 residue after 4 hrs by Western blot analysis; format: cell-based
Sequence (Q06187 whole entry): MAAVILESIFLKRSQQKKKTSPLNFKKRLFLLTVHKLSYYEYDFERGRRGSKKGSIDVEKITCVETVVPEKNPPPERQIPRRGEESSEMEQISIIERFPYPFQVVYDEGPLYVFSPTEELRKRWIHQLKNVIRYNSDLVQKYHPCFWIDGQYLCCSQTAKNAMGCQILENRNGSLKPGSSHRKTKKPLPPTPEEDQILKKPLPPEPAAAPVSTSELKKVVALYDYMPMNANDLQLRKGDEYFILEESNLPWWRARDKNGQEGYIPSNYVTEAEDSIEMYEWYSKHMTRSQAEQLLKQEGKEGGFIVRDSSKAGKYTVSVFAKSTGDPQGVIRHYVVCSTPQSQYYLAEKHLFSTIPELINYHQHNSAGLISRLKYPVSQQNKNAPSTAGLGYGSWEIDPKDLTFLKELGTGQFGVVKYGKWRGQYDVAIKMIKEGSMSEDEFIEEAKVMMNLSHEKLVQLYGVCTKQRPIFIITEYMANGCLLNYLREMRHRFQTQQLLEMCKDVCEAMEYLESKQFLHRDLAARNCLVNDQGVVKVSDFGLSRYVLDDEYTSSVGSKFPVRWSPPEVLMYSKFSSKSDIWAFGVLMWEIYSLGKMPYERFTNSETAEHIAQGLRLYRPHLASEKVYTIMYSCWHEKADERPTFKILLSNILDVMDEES
pIC50: −log10 of the molar value.

smiles.data	pIC50
C=CC(=O)N1CCCC[C@H]1c1nc(-c2ccc(C(=O)Nc3cc(C(F)(F)F)ccn3)cc2)c(C(N)=O)n1N	8.05
